# Tested on: Calf thymus DNA
# Experimental Protocol: Binding affinity to calf thymus DNA assessed as inhibition of DNA-dependent Escherichia coli RNA polymerase activity by measuring [14C]ATP incorporation at 5 uM by liquid scintillation spectrometer analysis
# Format: nucleic-acid assay
# Reported Conditions: Bos taurus
For each entry below, report its inhibition value.
Numbers only, in %.

Below, 4 molecules whose answers are already recorded.
[ask] Determine its reported inhibition: Cc1cc(NCCCCCCCNc2cc(C)nc3cc(N)ccc23)c2ccc(N)cc2n1
[reply] 0

[ask] Provide only the value of recorded inhibition for Cc1cc(NCCCNCCCNc2cc(C)nc3cc(N)ccc23)c2ccc(N)cc2n1
[reply] 9

[ask] Please indicate inhibition recorded for Cc1cc(NCCCCCCNc2cc(C)nc3cc(N)ccc23)c2ccc(N)cc2n1
[reply] 29

[ask] Please look at this molecule and report its inhibition: Cc1cc(NCCCCCCCCNc2cc(C)nc3cc(N)ccc23)c2ccc(N)cc2n1
[reply] 38

Consider now this further molecule.
[ask] Retrieve inhibition measured for Cc1cc(NCCCCNCCCNc2cc(C)nc3cc(N)ccc23)c2ccc(N)cc2n1 and print it.
[reply] 17
